- Method description: Antiamnesic activity in the mouse (step-down passive avoidance, amnesia induced by ECS)
- Type: in vivo, mouse (CD1 male)
- Condition info: po; OS, mouse, 60 min before training; read-out: ID50 (antiamnesic activity, dose inhibiting the amnesic effect of the ECS by 50%)
- Description: 1) Antiamnesic activity in the mouse (step-down passive avoidance) […] The mouse was placed delicately on the wooden cube and the time it took to descend to the grid floor (SDL=step-down latency) was measured. When all four of the animal's paws were resting on the floor the continuous 0.2 mA shock started and the time taken by The mouse to remount the wooden cube (EL=escape latency) was measured. […]
Measurement label: ED50 (mg/kg)
// units = mg/kg; emit number, no label

Known results for compounds:
Query string: Find the measured ED50 of `N[C@@H](CC(=O)O)C(=O)NCCC12CC3CC(CC(C3)C1)C2` and report it.
Result string: 38.3

Query string: Return ED50 (reported value) for this compound: `N[C@@H](CCC(=O)O)C(=O)NC1CCCCCC1`
Result string: 17.3

Query string: Look up and report measured ED50 for this entry: `N[C@@H](CCC(=O)NCCC12CC3CC(CC(C3)C1)C2)C(=O)O`
Result string: 28.9

Query string: Give the reported value of ED50 for this record: `CN1CCN(C(=O)[C@@H](N)CCC(=O)O)CC1`
Result string: 12.4

Query string: Give a short answer stating reported ED50 for `N[C@@H](CCC(=O)O)C(=O)NCCC12CC3CC(CC(C3)C1)C2` .
Result string: 4.6

Further cases:
Query string: Read the entry CC1(C)CC2CC(C)(CN2C(=O)[C@@H](N)CCC(=O)O)C1 (stereo partly shown) and write its reported ED50.
Result string: 42.3

Query string: Identify measured ED50 associated with `CC1(C)CCC(NC(=O)[C@@H](N)CCC(=O)O)CC1`
Result string: 4.6

----------
- Method description: Antidepressant activity in the behavioural despair test in the mouse
- Type: in vivo, mouse (male CD1)
- Condition info: 5 min, 1 mg/kg IP, 5 minutes, read-out: Decrease in immobility (as %) vs the controls
Measurement label: inhibition in vivo at 1 mg/kg (%)
The reply should contain only the number, in %.

Examples from the recorded data:
Query string: Report measured inhibition in vivo at 1 mg/kg; entry is N[C@@H](CCC(=O)O)C(=O)NC1CCC2CCCCC2C1 (some centres unmarked)
Result string: 5

Query string: Tell me measured inhibition in vivo at 1 mg/kg for `N[C@@H](CCC(=O)O)C(=O)NCCC12CC3CC(CC(C3)C1)C2` please.
Result string: 15

Query string: Respond only with inhibition in vivo at 1 mg/kg recorded for `N[C@@H](CC(=O)O)C(=O)NCCC12CC3CC(CC(C3)C1)C2`
Result string: 0

Query string: // Input: `CC1(C)CCC(NC(=O)CC[C@H](N)C(=O)O)CC1` . Output its inhibition in vivo at 1 mg/kg only.
Result string: 0

Further cases:
Query string: Identify measured inhibition in vivo at 1 mg/kg corresponding to CN(C)CCC=C1c2ccccc2CCc2ccccc21 [Amitriptyline, reference compound]
Result string: 19

----------
- Method description: Acute toxicity (LD50) in the mouse
- Condition info: in vivo, po, OS
Measurement label: LD50 (mg/kg)
Output spec: scalar in mg/kg, unitless text.

Query string: For the compound `CC1(C)CCC(NC(=O)[C@@H](N)CCC(=O)O)CC1` , give its reported LD50.
Result string: 1300

----------
- Target under test: excitor amino-acid receptors of cortical membranes ("forebrain") of rats
- Method description: Inhibition of the specific binding of [3H]-glutamate to rat forebrain membranes
- Condition info: rat forebrain membranes, 20 min, 37° C., pH 7.1
Measurement label: pIC50
Please treat pIC50 as minus the base-10 logarithm of the molar concentration.

Example entries begin here.
Query string: Note down pIC50 recorded for N[C@@H](CC(=O)O)C(=O)O [L-aspartic acid, reference compound]
Result string: 4.52

Query string: Kindly indicate its recorded pIC50. Item: `CN[C@@H](CCC(=O)O)C(=O)NC1CCC(C)(C)CC1`
Result string: 4.73

Query string: State, in one line, measured pIC50 of `N[C@@H](CCC(=O)O)C(=O)N1CCOCC1`
Result string: 4.53

New cases:
Query string: Quick one: give measured pIC50 for CCCCC(CC)CCNC(=O)[C@@H](N)CCC(=O)O (stereo partly shown)
Result string: 4.25

Query string: Specify measured pIC50 for `CC1(C)CCC(NC(=O)CC[C@H](N)C(=O)O)CC1` .
Result string: 4.15

----------
- Method description: Acute toxicity (LD50) in the mouse
- Condition info: in vivo, IV
Measurement label: LD50 (mg/kg)
Please give a number only; it is taken to be in mg/kg.

Query string: Annotate the compound `CC1(C)CCC(NC(=O)[C@@H](N)CCC(=O)O)CC1` with its measured LD50.
Result string: 290

----------
- Target under test: excitor amino-acid receptors of cortical membranes ("forebrain") of rats
- Method description: Inhibition of the specific binding of [3H]-glutamate to rat forebrain membranes
- Condition info: rat forebrain membranes, 20 min, 37° C., pH 7.1
- Protocol: 6) Studies on binding to rat "forebrain" membranes L-glutamate recognizes all three receptor subtypes indicated above, al though not selectively. […] Rat cerebral tissue (forebrain without striated tissue) was therefore homogeneised cold in tris buffer at pH 7.4. […] The specific binding was determined as the difference between the binding in the absence and in the presence of cold 3.6 mM L-glutamate.
Parameter log10 of IC50: see the listing below.
Parameter value (number): base-10 log of IC50 in µM.

Query string: Give the reported value of log10 of IC50 for this record: `CCCCNC(=O)[C@@H](N)CCC(=O)O`
Result string: 1.86

Query string: Return reported log10 of IC50. Input compound: `N[C@@H](CCC(=O)O)C(=O)NC1CCCCCC1`
Result string: 1.16

Query string: Quote log10 of IC50 reported for CC1(C)CC2CC(C)(CN2C(=O)[C@@H](N)CCC(=O)O)C1 (stereo partly drawn) please.
Result string: 2.31

Query string: Entry `CCCCCNC(=O)[C@@H](N)CCC(=O)O` needs its log10 of IC50 filled in; supply it.
Result string: 1.87

Others:
Query string: Give the reported value of log10 of IC50 for this record: `N[C@H](CCC(=O)O)C(=O)NCCC12CC3CC(CC(C3)C1)C2`
Result string: 2.49

Query string: Item N[C@@H](CCC(=O)O)C(=O)NC1CCC2CCCCC2C1 (stereo partly drawn) : provide log10 of IC50
Result string: 1.55

Query string: For the compound `N[C@@H](CCC(=O)O)C(=O)NC1CCCCCCCCC1` , report log10 of IC50.
Result string: 1.81

Query string: Tell me its log10 of IC50 given `CC(C)(C)CCCNC(=O)[C@@H](N)CCC(=O)O` as the entry.
Result string: 2.29

Query string: Could you please provide reported log10 of IC50 for N[C@@H](CCC(=O)O)C(=O)NC1C2CC3CC(C2)CC1C3 (stereo partly drawn) ? Thanks!
Result string: 2.12

Query string: Answer with reported log10 of IC50 of `CCCN(CCC)C(=O)[C@@H](N)CCC(=O)O`
Result string: 2.99

Query string: Provide measured log10 of IC50 value, entry: `C[C@H](NC(=O)[C@@H](N)CCC(=O)O)C1CCCCC1`
Result string: 2.23

Query string: Answer with the recorded log10 of IC50 for the compound listed here: `N[C@@H](CCC(=O)O)C(=O)NC12CC3CC(CC(C3)C1)C2`
Result string: 1.87

Query string: Give a short answer stating reported log10 of IC50 for N[C@@H](CCC(=O)O)C(=O)NC1CC2CCC1C2 (stereo partly drawn) .
Result string: 1.20

Query string: Using the record for `N[C@@H](CCC(=O)O)C(=O)N1CCC2(CCCC2)CC1` , state its measured log10 of IC50.
Result string: 2.57

Query string: Specify log10 of IC50 for `N[C@@H](CCC(=O)O)C(=O)NC1CCCC1` and stop.
Result string: 1.33

Query string: Give the reported log10 of IC50 for this compound. `N[C@@H](CC(=O)O)C(=O)NCCC12CC3CC(CC(C3)C1)C2`
Result string: 1.53

Query string: State, in one line, measured log10 of IC50 of `CCCCCCNC(=O)[C@@H](N)CCC(=O)O`
Result string: 1.85

Query string: Hello, please tell me recorded log10 of IC50 for this one: `N[C@@H](CCC(=O)O)C(=O)NCCC12CC3CC(CC(C3)C1)C2`
Result string: 1.18

Query string: Output measured log10 of IC50 for this item: `N[C@@H](CCC(=O)O)C(=O)N1CCCCCCC1`
Result string: 2.22

Query string: Complete the entry with log10 of IC50 for `CC(C)(C)CCNC(=O)[C@@H](N)CCC(=O)O`
Result string: 1.30
